Attribution: ChEMBL document CHEMBL5625252

test system: Pseudomonas aeruginosa; experiment: Antibacterial activity against Pseudomonas aeruginosa PAO1 assessed as inhibition of bacterial growth incubated for 18 hrs by agar dilution method; assay type: functional
Kindly supply the reported MIC values for the records listed here.
One number for each entry, in µg/mL.

[
  {
    "givenSmiles": "C[C@H]1[C@H](NC(=O)/C(=N\\OCC(=O)N2CCC[C@@H]2C(=O)O)c2csc(N)n2)C(=O)N1S(=O)(=O)O",
    "MIC [µg/mL]": 32
  }
]

Give MIC for each of the items listed below.
1. CC(C)(O/N=C(\C(=O)N[C@@H]1C(=O)N2C(C(=O)[O-])=C(C[n+]3ccccc3)CS[C@H]12)c1csc(N)n1)C(=O)O
2. C[C@H](O/N=C(\C(=O)N[C@@H]1C(=O)N(OS(=O)(=O)O)C1(C)C)c1csc(N)n1)C(=O)O

Result:
1. 2
2. 16

* * *

tested on: Pseudomonas aeruginosa; assay: Antibacterial activity against Pseudomonas aeruginosa PAO1 assessed as inhibition of bacterial growth incubated for 18 hrs by agar dilution method; assay type: functional
observedProperty: MIC

[
  {
    "compound": "C[C@H]1[C@H](NC(=O)/C(=N\\OCC(=O)N2CCC[C@@H]2C(=O)O)c2nsc(N)n2)C(=O)N1S(=O)(=O)O",
    "MIC": "> 64 µg/mL"
  },
  {
    "compound": "C[C@H]1[C@H](NC(=O)/C(=N\\OCC(=O)N2C3CCCC3C[C@@H]2C(=O)O)c2csc(N)n2)C(=O)N1S(=O)(=O)O (stereo partly drawn)",
    "MIC": "> 64 µg/mL"
  }
]

Next, consider the following compound.
Ask: # value lookup — system Pseudomonas aeruginosa, readout MIC, item C[C@H]1[C@H](NC(=O)/C(=N\OCC(=O)N2CCC(C(=O)O)CC2)c2csc(N)n2)C(=O)N1S(=O)(=O)O
Result: > 64 µg/mL

* * *

tested on: Pseudomonas aeruginosa; assay: Antibacterial activity against Pseudomonas aeruginosa PAO1 assessed as inhibition of bacterial growth incubated for 18 hrs by agar dilution method; format: functional
Kindly supply the reported MIC values for the records listed here.

[
  {
    "compound": "CC(C)[C@@H](O/N=C(\\C(=O)N[C@@H]1C(=O)N(OS(=O)(=O)O)C1(C)C)c1csc(N)n1)C(=O)O",
    "testResult": "> 64 µg/mL"
  },
  {
    "compound": "C[C@H]1[C@H](NC(=O)/C(=N\\OCC(=O)N2CCC(C(=O)O)C2)c2csc(N)n2)C(=O)N1S(=O)(=O)O (stereo partly drawn)",
    "testResult": "> 64 µg/mL"
  }
]

Next, consider the following compound.
Ask: # value lookup — system Pseudomonas aeruginosa, readout MIC, item C[C@H]1[C@H](NC(=O)/C(=N\OCC(=O)N2CCCC(C(=O)O)C2)c2csc(N)n2)C(=O)N1S(=O)(=O)O (stereo partly drawn)
Result: > 64 µg/mL
